Item-by-item account of IC50
test system: MCF-7 (estrogen-dependent) breast cancer cell line; assay: MTT assay, cell viability of MCF-7 cells; assay type: cell-based; conditions: Homo sapiens, MCF7, 24 h, 24 h exposure
Value expressed in µM; do not type the unit.

Worked examples, 5 molecules total:
{"Molecule": "Fc1ccc(-c2nnc(Nc3ccccc3Cl)s2)cc1", "System tested": "MCF-7 (estrogen-dependent) breast cancer cell line", "Unit name": "µM", "IC50": 54.1}
{"Molecule": "Fc1cccc(-c2nnc(Nc3ccccc3I)s2)c1", "System tested": "MCF-7 (estrogen-dependent) breast cancer cell line", "Unit name": "µM", "IC50": 66}
{"Molecule": "Fc1cccc(-c2nnc(Nc3ccccc3Br)s2)c1", "System tested": "MCF-7 (estrogen-dependent) breast cancer cell line", "Unit name": "µM", "IC50": 52.4}
{"Molecule": "Fc1ccc(-c2nnc(Nc3ccccc3Br)s2)cc1", "System tested": "MCF-7 (estrogen-dependent) breast cancer cell line", "Unit name": "µM", "IC50": 82.5}
{"Molecule": "Fc1cccc(-c2nnc(Nc3ccccc3Cl)s2)c1", "System tested": "MCF-7 (estrogen-dependent) breast cancer cell line", "Unit name": "µM", "IC50": 54.8}

# input for lookup
The reported IC50 of the molecule Fc1ccc(-c2nnc(Nc3ccccc3I)s2)cc1 was 53.9
